# Test summary: qHTS of pediatric cancer cell lines to identify multiple opportunities for drug repurposing: Primary screen for BT-12 cells (AID 1347101); also: nearly all actives have a fitted effect of over 25% in size
# Condition: BT-12 viability, CellTiter-Glo luminescence, 48 h; series mostly up to 57.3 µM
Records with an inconclusive call do not appear. The source made the active and inactive calls. Calls follow the shape of the dose curve; as a rule, active = well fitted cell-killing curve with a large enough effect; inconclusive = small, poorly fitted or top-dose-only effect; inactive = flat fitted curve, though single readings scatter.
Test readout: outcome

INSERT INTO results (compound, assay_value) VALUES
  ('OC[C@H]1O[C@@H](OCCc2ccc(O)cc2)[C@H](O)[C@@H](O)[C@H]1O', 'inactive'),
  ('CCOC(=O)N1CCN([N+]([O-])=NOc2cc(ON=[N+]([O-])N3CCN(C(=O)OCC)CC3)c([N+](=O)[O-])cc2[N+](=O)[O-])CC1', 'inactive'),
  ('CC1CCN(c2cc(N3CCN(C)CC3)ccc2NC(=O)c2cc(C#N)c[nH]2)CC1', 'inactive'),
  ('Cc1cc2nc3c(=O)[nH]c(=O)nc-3n(CC(O)C(O)C(O)CO)c2cc1C (stereo not given)', 'inactive');

[in] Which measured outcome value corresponds to COc1ccc(CCC(=O)Nc2nc3ccc(Cl)cc3s2)cc1OC ?
[out] inactive
